Tested on: ZEAMX (Corn, Field)
assay-explanation: Preemergence herbicidal evaluation
Format: in vivo, Zea mays
condition-description: rate 0.1250 kg/ha; rated 4-5 weeks after treatment; rating scale 0-9
Listed compounds paired with reported Preemergence herbicidal rating ZEAMX
Note: the reply should be a number with no unit written.

Would you please look over these solved cases?
| compound | measure | observed |
| --- | --- | --- |
| Cn1c(C(F)(F)F)cc(=O)n(-c2cc(N=C3SCC(=O)N3C3CC3)c(Cl)cc2F)c1=O [Compound 152] | Preemergence herbicidal rating ZEAMX | 1.0 |
| Cn1c(C(F)(F)F)cc(=O)n(-c2cc(N=C3SCC(=O)N3Cc3ccc(S(N)(=O)=O)cc3)c(Cl)cc2F)c1=O [Compound 135] | Preemergence herbicidal rating ZEAMX | 2.0 |
| COc1cccc(CN2C(=O)CSC2=Nc2cc(-n3c(=O)cc(C(F)(F)F)n(C)c3=O)c(F)cc2Cl)c1 [Compound 137] | Preemergence herbicidal rating ZEAMX | 0.0 |

// next item, Preemergence herbicidal rating ZEAMX requested
Task: Give Preemergence herbicidal rating ZEAMX for Cn1c(C(F)(F)F)cc(=O)n(-c2cc(N=C3SCC(=O)N3Cc3ccc(Cl)cc3)c(Cl)cc2F)c1=O [Compound 145] tested on ZEAMX (Corn, Field).
Output: 1.0

---

System: TRZAWR (Wheat, Winter, cv Riband)
assay-explanation: Preemergence herbicidal evaluation
Type: in vivo, Triticum aestivum
condition-description: rate 0.1250 kg/ha; rated 4-5 weeks after treatment
measure: Preemergence herbicidal rating TRZAWR
Reply briefly: the number, and no unit.

Example compounds with recorded Preemergence herbicidal rating TRZAWR:
| compound | observed |
| --- | --- |
| CCOC(=O)CN1C(=O)C(SC)SC1=Nc1cc(-n2c(=O)cc(C(F)(F)F)n(C)c2=O)c(F)cc1Cl (centres unmarked) | 1.0 |
| CCOC(=O)CN1C(=O)C(C(=O)OCC)SC1=Nc1cc(-n2c(=O)cc(C(F)(F)F)n(C)c2=O)c(F)cc1Cl (centres unmarked) | 0.0 |
| C=CCN1C(=O)C(CC(=O)Nc2ccccc2)SC1=Nc1cc(-n2c(=O)cc(C(F)(F)F)n(C)c2=O)c(F)cc1Cl (centres unmarked) | 0.0 |
| Cn1c(C(F)(F)F)cc(=O)n(-c2cc(N=C3SCC(=O)N3[C@@H](Cc3ccccc3)C(=O)O)c(Cl)cc2F)c1=O | 2.0 |
| CCOC(=O)COc1ccccc1CC1S/C(=N/c2cc(-n3c(=O)cc(C(F)(F)F)n(C)c3=O)c(F)cc2Cl)N(CC(=O)OCC)C1=O (centres unmarked) | 0.0 |

Task: Tell me measured Preemergence herbicidal rating TRZAWR for CCOC(=O)CN1C(=O)C(CC(=O)O)O/C1=N/c1cc(-n2c(=O)cc(C(F)(F)F)n(C)c2=O)c(F)cc1Cl (centres unmarked) please.
Output: 0.0

Task: Supply reported Preemergence herbicidal rating TRZAWR belonging to this compound: CCOC(=O)[C@H](C)N1C(=O)CSC1=Nc1cc(-n2c(=O)cc(C(F)(F)F)n(C)c2=O)c(F)cc1Cl
Output: 7.0

Task: Write down Preemergence herbicidal rating TRZAWR measured for item Cn1c(C(F)(F)F)cc(=O)n(-c2cc(N=C3SCC(=O)N3CCC(=O)O)c(Cl)cc2F)c1=O
Output: 3.0
